From: ChEMBL document CHEMBL1124484

# tgt: Adenosine A2 receptor (Homo sapiens, UniProt P29275+P29274)
assay_readout: Ki (µM)

Known Ki results, listed for orientation:
CCCn1c(=O)c2c(ncn2C)n(CCC)c1=O = 2.8
CCCn1c(=O)c2c(nc(C3CCCCC3)n2C)n(CCC)c1=O = 0.085
CCCn1c(=O)c2c(nc(-c3ccc(S(=O)(=O)O)cc3)n2C)n(CCC)c1=O = 2.1
Cn1c(=O)c2nc(C3CCCCC3)[nH]c2n(C)c1=O = 0.15
CCCn1c(=O)[nH]c(=O)c2[nH]c(-c3ccc(S(=O)(=O)O)cc3)nc21 = 2.7
Cn1c(=O)c2c(nc(C3CCCCC3)n2C)n(C)c1=O = 0.19

I. CCCn1c(=O)c2nc(-c3ccc(S(=O)(=O)O)cc3)[nH]c2n(CCC)c1=O
II. CC(C)CCn1c(=O)c2nc[nH]c2n(CC(C)C)c1=O
-- ask Two entries are listed, I and II . Which one carries the higher Ki? State your choice using its label.
-- reply II
